Provenance of the data: paper PMC10816986

Parameter: weakening of contacts with the DNA substrate relative to wt. Scope: all listed entries.
System: m3C substrate
Experiment notes: Equilibrium fluorescence titration with methylated DNA
Type: binding
Details: ratio of Kd for m3C substrate
Measure name: weakening of contacts with the DNA substrate relative to wt

molecule="H191A ALKBH3: ALKBH3 mutant, His191 replaced with Ala (protein, UniProt Q96Q83 1-286, looked up, variant H191A) Alpha-ketoglutarate-dependent …: MEEKRRRARVQGAWAAPVKSQAIAQPATTAKSHLHQKPGQTWKNKEHHLSDREFVFKEPQQVVRRAPEPRVIDREGVYEISLSPTGVSRVCLYPGFVDVKEADWILEQLCQDVPWKQRTGIREDITYQQPRLTAWYGELPYTYSRITMEPNPHWHPVLRTLKNRIEENTGHTFNSLLCNLYRNEKDSVDWASDDEPSLGRCPIIASLSFGATRTFEMRKKPPPEENGDYTYVERVKIPLDHGTLLIMEGATQADWQHRVPKEYHSREPRVNLTFRTVYPDPRGAPW" value="~1.5 fold"
molecule="Y143F ALKBH3: ALKBH3 mutant, Tyr143 replaced with Phe (protein, UniProt Q96Q83 1-286, looked up, variant Y143F) Alpha-ketoglutarate-dependent …: MEEKRRRARVQGAWAAPVKSQAIAQPATTAKSHLHQKPGQTWKNKEHHLSDREFVFKEPQQVVRRAPEPRVIDREGVYEISLSPTGVSRVCLYPGFVDVKEADWILEQLCQDVPWKQRTGIREDITYQQPRLTAWYGELPYTFSRITMEPNPHWHPVLRTLKNRIEENTGHTFNSLLCNLYRNEKDSVDWHSDDEPSLGRCPIIASLSFGATRTFEMRKKPPPEENGDYTYVERVKIPLDHGTLLIMEGATQADWQHRVPKEYHSREPRVNLTFRTVYPDPRGAPW" value="~1.4 fold"
molecule="Y143A ALKBH3: ALKBH3 mutant, Tyr143 replaced with Ala (protein, UniProt Q96Q83 1-286, looked up, variant Y143A) Alpha-ketoglutarate-dependent …: MEEKRRRARVQGAWAAPVKSQAIAQPATTAKSHLHQKPGQTWKNKEHHLSDREFVFKEPQQVVRRAPEPRVIDREGVYEISLSPTGVSRVCLYPGFVDVKEADWILEQLCQDVPWKQRTGIREDITYQQPRLTAWYGELPYTASRITMEPNPHWHPVLRTLKNRIEENTGHTFNSLLCNLYRNEKDSVDWHSDDEPSLGRCPIIASLSFGATRTFEMRKKPPPEENGDYTYVERVKIPLDHGTLLIMEGATQADWQHRVPKEYHSREPRVNLTFRTVYPDPRGAPW" value="~2.3 fold"
